- method-description: NCI Yeast Anticancer Drug Screen. Data for the rad50 strain (AID 155);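 also: 0% = growth of vehicle-only cultures of the same strain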
- test-parameters: S. cerevisiae rad50 strain growth inhibition; at 50.0 µM; hits give high values
This is part of a sample that, as a whole, favours compounds with a hit. Of some 79,000 tested, about 15% had one in any assay.
Lab note: anything with growth inhibition at or over 70% counts as 1; the rest go in 0.

Worked set:
{"columns": ["compound", "class-label"],
 "data": [
  ["Cc1cc(=O)[nH]c(NN2C(Cl)C(=O)C2c2ccc(O)cc2)n1 (stereo unspecified)", 1],
  ["CCC(CC)C(=O)O.[Ag]", 1],
  ["C/C(=N\\NC(=S)N1CCC(C)CC1)c1ncccn1", 1]
]}

Could you verify whether the entry COc1cc[c]([Sn]([c]2ccc(OC)cc2)([c]2ccc(OC)cc2)[c]2ccc(OC)cc2)cc1 shows growth inhibition of no less than 70%?
1

Could you verify whether the entry Nc1cc2c(c[n+](CCCBr)c3ccccc23)c2ccccc12 shows growth inhibition of no less than 70%?
0

====

- method-description: NCI Yeast Anticancer Drug Screen. Data for the bub3 strain (AID 167)
- test-parameters: S. cerevisiae bub3 mutant strain, at 50.0 µM
About 79,000 compounds went through this panel and 15% of them were active in at least one assay; those are over-represented in the sample as a whole. The source made the active and inactive calls. No stated cut-off is given here; in the data, active means growth inhibition above about 70%; inactive means the rest.
Could you please pick one outcome from this set? label 1 for active, label 0 for inactive

Worked set:
{"columns": ["molecule", "class-label"],
 "data": [
  ["Oc1cc(-[n+]2ccc3ccccc3c2)c(O)c2ccccc12", "label 0"],
  ["CCCCN(C)N=Nc1c(C(N)=O)n[nH]c1C(C)C", "label 0"],
  ["COC(=O)c1nnn(-c2ccc(Cl)cc2Cl)c1C(=O)c1ccc(Cl)c(Cl)c1", "label 1"],
  ["NC(=S)C(=S)N/C=C(/c1ccc(Cl)cc1)S(=O)(=O)Cc1ccc(Cl)cc1", "label 1"],
  ["CC(=O)N1C(c2[nH]c3ccccc3c2Cc2ccccc2)CCN1c1ccccc1 (stereo not drawn)", "label 1"]
]}

For O=c1oc(-c2cc([N+](=O)[O-])cc([N+](=O)[O-])c2Cl)nc2ccccc12 , what call appears in the results of this test?
label 1

For N=C(N)Cc1ccc(NC(=O)c2ccc(C(=O)Nc3ccc(CC(=N)N)cc3)cc2)cc1 , what call appears in the results of this test?
label 0

For CN(C)CCCNc1c2ccccc2nc2ccc(F)cc12 , what call appears in the results of this test?
label 0

====

- method-description: NCI Yeast Anticancer Drug Screen. Data for the bub3 strain (AID 167)
- test-parameters: S. cerevisiae bub3 mutant strain, at 5.0 µM (retest, dose inferred, filed as 0.5), hits give high values
The panel holds about 79,000 compounds, 15% with a hit somewhere; the sample as a whole holds those more often. Activity calls are given as the source filed them. Cut-off read from the data, not from the text of the source: active = growth inhibition above about 70%; inactive = the rest.
# growth inhibition per record follows

{"columns": ["compound", "growth inhibition"],
 "data": [
  ["CCOC(=O)N1C=C(C(=O)OC)C(c2ccccc2)C(C(=O)OC)=C1", "8% (inactive)"],
  ["Cc1cc(Br)cc(C(=O)Cl)c1O", "-74% (inactive)"],
  ["c1ccc2cc3c(cc2c1)Nc1c2ccccc2nc2cccc-3c12", "15% (inactive)"],
  ["SCCc1ccccn1", "-1% (inactive)"],
  ["NC(=S)N/N=C1\\CCCCc2ccccc21", "17% (inactive)"]
]}

What the record says about CC1C2CC(C(S(=O)(=O)N3CCOCC3)/C2=N\O)C1(C)C (stereo not given) : growth inhibition is 0% (inactive)

What the record says about N#CC(C(=O)CCCC(=O)Nc1ccc(Cl)cc1)c1ccccc1Cl (stereo not given) : growth inhibition is 1% (inactive)

What the record says about COc1ccc2c(c1)S(=O)(=O)C(c1ccccc1)=CC2=O : growth inhibition is 87% (active)

What the record says about Nc1ccc(SC23CC4CC(CC(C4)C2)C3)cc1 : growth inhibition is 40% (inactive)

What the record says about Nc1ccccc1SC(C[N+](=O)[O-])c1ccc2c(c1)OCO2 (stereo not given) : growth inhibition is 80% (active)

What the record says about NCCC(N)P(=O)(O)O (stereo not given) : growth inhibition is -74% (inactive)

What the record says about CC(/C=C/NNC1=NC(c2ccccc2)C(c2ccccc2)=NN1)Sc1ccccc1N (stereo not given) : growth inhibition is 25% (inactive)

What the record says about O=C(CCl)N(Cc1ccccc1)Cc1ccccc1 : growth inhibition is 6% (inactive)

What the record says about Cc1cc(=Nc2ccc3c(c2)c(N)cc(C)[n+]3C)nc(N)n1C : growth inhibition is 75% (active)

What the record says about CC(C)(C)C(=O)CC(Cc1nccc2ccccc12)c1ccco1 (stereo not given) : growth inhibition is -1% (inactive)
